Sourced from paper PMC7939381

Molecular target: T1, 14-3-3γ, full length, N-terminally His6-tagged (human, UniProt P61981 1-247)
T1 chain: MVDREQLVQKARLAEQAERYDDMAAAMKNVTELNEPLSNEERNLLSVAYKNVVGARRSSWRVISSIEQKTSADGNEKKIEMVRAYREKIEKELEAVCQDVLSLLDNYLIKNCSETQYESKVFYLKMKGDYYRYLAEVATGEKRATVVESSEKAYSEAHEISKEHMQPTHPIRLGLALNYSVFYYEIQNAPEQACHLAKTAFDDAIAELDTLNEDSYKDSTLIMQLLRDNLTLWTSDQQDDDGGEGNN
Assay: FP
Primed or numbered codes have the meaning given here. Where no end group is shown, it is not given here. [ ]: non-standard residue; d: D form. The star is where a group is joined. PEG2′ = short PEG linker placed between the N-terminal FITC label and the peptide; FITC = O=C1OC2(c3ccc(O)cc3Oc3cc(O)ccc32)c2ccc(NC(=S)*)cc21; pS = N[C@@H](COP(=O)(O)O)C(=O)O
measure: pKd
Numbers only, as −log10 of the molar value.

(Q) pKd lookup needed for {FITC-PEG2′}-NKNAN[pS]SPV [FITC-labeled peptide 1, APN 38–46 pSer43] , thanks.
(A) 5.94
